Can you tell me log10 IC50 for the items I'm about to list?
target: MCL1 protein / biotinylated BIM BH3 peptide in RKO cells (Homo sapiens (Human)); test: PIxEL: protein-protein interaction in permeabilized cells by ELISA (Assay 5); type: cell-based; details: PIxEL IC50 (median)
Sequence (Q07820 whole entry): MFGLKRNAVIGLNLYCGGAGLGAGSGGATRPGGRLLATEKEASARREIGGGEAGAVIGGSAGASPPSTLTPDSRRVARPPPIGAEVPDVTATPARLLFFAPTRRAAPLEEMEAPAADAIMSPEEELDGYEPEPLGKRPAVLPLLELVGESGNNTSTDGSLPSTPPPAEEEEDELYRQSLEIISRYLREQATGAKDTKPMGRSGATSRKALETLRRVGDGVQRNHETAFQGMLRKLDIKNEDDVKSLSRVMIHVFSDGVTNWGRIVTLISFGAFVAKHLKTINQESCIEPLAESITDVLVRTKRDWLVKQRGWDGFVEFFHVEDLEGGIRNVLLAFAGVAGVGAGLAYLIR
A value of 2 here means IC50 of 100 in nM, since values are log10.

Some solved entries appear below for comparison.
{"COMPOUND": "CCc1c2c(nn1C)C1CCCCN1CCCCn1c(C(=O)O)c(CCCOc3cccc4ccccc34)c3ccc(Cl)c-2c31 (racemic) [Example 102]", "ASSAY SYSTEM": "MCL1 protein / biotinylated BIM BH3 peptide in RKO cells (Homo sapiens (Human))", "log10 IC50": 1.78}
{"COMPOUND": "CCc1c2c(nn1C)C(C1CC1)OCCCCn1c(C(=O)O)c(CCCOc3cccc4cc(F)ccc34)c3ccc(Cl)c-2c31 (single isomer, unassigned; enantiomer 1) [Example 39]", "ASSAY SYSTEM": "MCL1 protein / biotinylated BIM BH3 peptide in RKO cells (Homo sapiens (Human))", "log10 IC50": 2.50}
{"COMPOUND": "Cc1c2c(nn1C)C(CCN1CCOCC1)OCCCCn1c(C(=O)O)c(CCCOc3cccc4ccccc34)c3ccc(F)c-2c31 (single isomer, unassigned; enantiomer 1) [Example 8]", "ASSAY SYSTEM": "MCL1 protein / biotinylated BIM BH3 peptide in RKO cells (Homo sapiens (Human))", "log10 IC50": 2.79}
{"COMPOUND": "CCc1c2c(nn1C)C(CCN1CCOCC1)OCCCCn1c(C(=O)O)c(CCCOc3cccc4ccccc34)c3ccc(F)c-2c31 (racemic) [Example 10]", "ASSAY SYSTEM": "MCL1 protein / biotinylated BIM BH3 peptide in RKO cells (Homo sapiens (Human))", "log10 IC50": 2.51}
{"COMPOUND": "CCc1c2c(nn1C)C(CCOC)OCCCCn1c(C(=O)O)c(CCCOc3cccc4cc(F)ccc34)c3ccc(Cl)c-2c31 (single isomer, unassigned; enantiomer 1) [Example 42]", "ASSAY SYSTEM": "MCL1 protein / biotinylated BIM BH3 peptide in RKO cells (Homo sapiens (Human))", "log10 IC50": 1.65}
{"COMPOUND": "CCc1c2c(nn1C)C(CCN1CCOCC1)OCCCCn1c(C(=O)O)c(CCCOc3cccc4ccccc34)c3ccc(F)c-2c31 (single isomer, unassigned; enantiomer 2) [Example 12]", "ASSAY SYSTEM": "MCL1 protein / biotinylated BIM BH3 peptide in RKO cells (Homo sapiens (Human))", "log10 IC50": 4.29}

Below are some compounds; for each one, tell me its log10 IC50.
1. CCc1c2c(nn1C)C(CCC(C)(C)O)OCCCCn1c(C(=O)O)c(CCCOc3cccc4cc(F)ccc34)c3ccc(Cl)c-2c31 (single isomer, unassigned; enantiomer 1) [Example 75]
2. Cc1c2c(nn1C)C(CCN1CCOCC1)OCCCCn1c(C(=O)O)c(CCCOc3cccc4cc(F)ccc34)c3ccc(Cl)c-2c31 (single isomer, unassigned; enantiomer 2) [Example 18]
3. CCc1c2c(nn1C)C(CCN1CC(F)(F)C1)OCCCCn1c(C(=O)O)c(CCCOc3cccc4cc(F)ccc34)c3ccc(Cl)c-2c31 (single isomer, unassigned; (+)) [Example 78]

[1.44, 3.39, 1.64]

# return log10 IC50 for each item in the list
1. CCc1c2c(nn1C)C(CCN1CCOCC1)OCCCCn1c(C(=O)O)c(CCCOc3cccc4cc(F)ccc34)c3ccc(F)c-2c31 (single isomer, unassigned; enantiomer 2) [Example 51]
2. CCc1c2c(nn1C)C(C(F)(F)F)OCCCCn1c(C(=O)O)c(CCCOc3cccc4ccccc34)c3ccc(Cl)c-2c31 (racemic) [Example 27]

4.08
3.29
